Data credit: paper PMC5613062

test: Pharmacokinetics alone and in combination, selumetinib + erlotinib arm; conditions: human, plasma, oral, AUC(0–8), geometric mean (% CV); dosed in combination, selumetinib 50 mg BID (N = 12) + erlotinib 100 mg QD
Readout Name: AUC(0-t)

compound="C#Cc1cccc(Nc2ncnc3cc(OCCOC)c(OCCOC)cc23)c1 [Erlotinib, reference compound]" value="10400 ng·h/mL"
compound=Cn1cnc2c(F)c(Nc3ccc(Br)cc3Cl)c(C(=O)NOCCO)cc21 value="3640 ng·h/mL"

* * *

assay: Pharmacokinetics alone and in combination, selumetinib + erlotinib arm; settings: human, plasma, oral, AUC(0–12), geometric mean; QD cohorts; in combination, selumetinib 100 mg (N = 6) + erlotinib 100 mg QD
# Lookup of reported AUC(0-t) keyed by entry
Readout Name: AUC(0-t) (ng·h/mL)

compound=Cn1cnc2c(F)c(Nc3ccc(Br)cc3Cl)c(C(=O)NOCCO)cc21 reading_unit=ng·h/mL value=7760
compound="C#Cc1cccc(Nc2ncnc3cc(OCCOC)c(OCCOC)cc23)c1 [Erlotinib, reference compound]" reading_unit=ng·h/mL value=12000

* * *

assay: Pharmacokinetics alone and in combination, selumetinib + temsirolimus arm; assay type: in vivo, human; conditions: human, plasma, iv, median (range); dosed alone, selumetinib 50 mg cohort (N = 25); temsirolimus 25 mg IV; read-out: tmax
Readout Name: tmax (h)

compound="CO[C@H]1C[C@@H]2CC[C@@H](C)[C@@](O)(O2)C(=O)C(=O)N2CCCC[C@H]2C(=O)O[C@H]([C@H](C)C[C@@H]2CC[C@@H](O)[C@H](OC)C2)CC(=O)[C@H](C)/C=C(\\C)[C@@H](O)[C@@H](OC)C(=O)[C@H](C)C[C@H](C)/C=C/C=C/C=C/1C [Sirolimus]" value=1.5

* * *

assay: Pharmacokinetics alone and in combination, selumetinib + erlotinib arm; conditions: human, plasma, oral, AUC(0–8), geometric mean; QD cohorts; in combination, selumetinib 50 mg (N = 6) + erlotinib 100 mg QD
Readout Name: AUC(0-t) (ng·h/mL)

molecule=Cn1cnc2c(F)c(Nc3ccc(Br)cc3Cl)c(C(=O)NOCCO)cc21 readout_name=AUC(0-t) value=2600
molecule="C#Cc1cccc(Nc2ncnc3cc(OCCOC)c(OCCOC)cc23)c1 [Erlotinib, reference compound]" readout_name=AUC(0-t) value=8600

* * *

assay: Pharmacokinetics alone and in combination, selumetinib + erlotinib arm; details: human, plasma, oral, AUC(0–12), geometric mean (% CV); dosed alone, selumetinib 50 mg cohort (N = 14); erlotinib 100 mg QD
Reported AUC(0-t) by item:
Readout Name: AUC(0-t) (ng·h/mL)

molecule="C#Cc1cccc(Nc2ncnc3cc(OCCOC)c(OCCOC)cc23)c1 [Erlotinib, reference compound]" value=14500
molecule=Cn1cnc2c(F)c(Nc3ccc(Br)cc3Cl)c(C(=O)NOCCO)cc21 value=2700

* * *

experiment: Pharmacokinetics alone and in combination, selumetinib + erlotinib arm; settings: human, plasma, oral, AUC(0–8), geometric mean (% CV); dosed alone, selumetinib 50 mg cohort (N = 14); erlotinib 100 mg QD
# AUC(0-t) per record follows
Readout Name: AUC(0-t)

compound=Cn1cnc2c(F)c(Nc3ccc(Br)cc3Cl)c(C(=O)NOCCO)cc21 readout_name=AUC(0-t) value="2280 ng·h/mL"
compound="C#Cc1cccc(Nc2ncnc3cc(OCCOC)c(OCCOC)cc23)c1 [Erlotinib, reference compound]" readout_name=AUC(0-t) value="10100 ng·h/mL"
